# assayComment: NCI Yeast Anticancer Drug Screen. Data for the rad50 strain (AID 155);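 further: 0% = growth of vehicle-only cultures of the same strain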
# assaySetup: S. cerevisiae rad50 strain growth inhibition; at 50.0 µM; stronger effect = higher value
The panel holds about 79,000 compounds, 15% with a hit somewhere; the sample as a whole holds those more often.
# growth inhibition per record follows
Report the figure in % without appending any unit label.

Known growth inhibition results, listed for orientation:
[[record]]
molecule = "c1ccc2c(c1)-c1cccc3cncc-2c13"
units = "%"
measuredresult = 90.7

[[record]]
molecule = "C=C1C(=O)OC2C(C)C3C=CC(=O)[C@@]3(C)C(OC(=O)/C(C)=C/C)C1[C@@H]2OC(C)=O (stereo not given in full)"
units = "%"
measuredresult = 80.2


Data request: Which growth inhibition value is on record for "CSC(C=P(c1ccccc1)(c1ccccc1)c1ccccc1)=Nc1ccccc1" ?
Data returned: 96.8

Data request: Which growth inhibition value is on record for "Cc1c(C(=O)O)nc(C(Br)(Br)Br)[nH]c1=O" ?
Data returned: 54.2

Data request: Which growth inhibition value is on record for Cc1nn(C(=O)c2ccccc2O)c2c1C(c1ccc([N+](=O)[O-])cc1)SC(N)=N2 (stereo not given) ?
Data returned: 35.5

Data request: Which growth inhibition value is on record for N#CN1CCCC(O)c2sc3ccccc3c2CC1 (stereo not given) ?
Data returned: 56.4

Data request: Which growth inhibition value is on record for Nc1ccc(C(=O)NN2C(=O)C(Cl)C2c2cc(Br)cc(Br)c2O)cc1 (stereo not given) ?
Data returned: 96.2

Data request: Which growth inhibition value is on record for "CCC[CH2][Sn]([CH2]CCC)([O]C(=O)c1cc(OC)c(OC)c(OC)c1)[O]C(=O)c1cc(OC)c(OC)c(OC)c1" ?
Data returned: 71.9

Data request: Which growth inhibition value is on record for CC(=O)c1c2c(cc3c1CC1(Cc4ccccc4C1=O)C3)CCC2 (stereo not given) ?
Data returned: 36.7

Data request: Which growth inhibition value is on record for CC(O)(c1ccccc1)c1ccccc1S(=O)(=O)Nc1ccccc1 (stereo not given) ?
Data returned: 99.2
